Quick record: Ki, hMeprin α (Homo sapiens, UniProt Q16819).
measurement_label: Ki (nM)

# structure, measured_number
records = [
    ("Cc1n[nH]c(-c2ccccc2)c1CC(=O)NO", 302),
    ("O=C(Cc1c(-c2ccc(C(=O)O)cc2)n[nH]c1-c1ccc(C(=O)O)cc1)NO", 56),
    ("O=C(Cn1c(-c2ccccc2)nc2ccccc21)NO", 128),
]

###

- system: hMeprin α (Homo sapiens)
- Sequence (Q16819 66-746): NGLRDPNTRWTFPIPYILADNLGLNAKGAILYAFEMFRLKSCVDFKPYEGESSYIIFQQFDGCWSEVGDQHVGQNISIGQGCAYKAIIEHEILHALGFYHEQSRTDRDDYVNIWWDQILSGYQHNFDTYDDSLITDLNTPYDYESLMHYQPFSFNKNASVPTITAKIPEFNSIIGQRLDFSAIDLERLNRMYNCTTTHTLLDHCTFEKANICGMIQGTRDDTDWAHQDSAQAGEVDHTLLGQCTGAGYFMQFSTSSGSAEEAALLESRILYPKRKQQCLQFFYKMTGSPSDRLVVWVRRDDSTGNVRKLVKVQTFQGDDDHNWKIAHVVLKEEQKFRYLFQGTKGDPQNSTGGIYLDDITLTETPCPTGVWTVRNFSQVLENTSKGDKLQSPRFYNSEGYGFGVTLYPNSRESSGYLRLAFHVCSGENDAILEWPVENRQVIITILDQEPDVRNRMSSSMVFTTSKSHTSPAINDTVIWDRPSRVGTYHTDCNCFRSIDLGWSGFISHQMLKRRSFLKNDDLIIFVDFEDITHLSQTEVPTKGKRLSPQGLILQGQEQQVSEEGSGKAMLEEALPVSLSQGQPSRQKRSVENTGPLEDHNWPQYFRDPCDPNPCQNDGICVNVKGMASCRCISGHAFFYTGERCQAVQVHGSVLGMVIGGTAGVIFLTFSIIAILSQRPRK
- test_details: Enzymatic assay, quenched peptide substrate cleavage, method B
- Type: biochemical
- test_context: geometric mean (geometric SD factor in parentheses), read-out: Meprin alpha IC50
pIC50: −log10 of the molar value.
Catalogue of pIC50 readings, one per entry.

# compound, system, pIC50
rows = [
    ("O=C(Cc1c(-c2ccc(C(=O)O)cc2)n[nH]c1-c1ccc(Cl)c(O)c1F)NO", "hMeprin α (Homo sapiens)", 8.00),
    ("O=C(Cc1c(-c2ccc3c(c2)OCO3)n[nH]c1-c1ccc2c(c1)OCO2)NO", "hMeprin α (Homo sapiens)", 9.14),
    ("O=C(Cc1c(-c2ccccc2)[nH]nc1[C@H]1CC[C@@H](C(=O)O)CC1)NO", "hMeprin α (Homo sapiens)", 8.00),
    ("O=C(Cc1c(-c2cccc(C(=O)O)c2)n[nH]c1-c1cc(F)c(O)c(Cl)c1)NO", "hMeprin α (Homo sapiens)", 9.62),
    ("O=C(Cc1c(-c2cc(O)no2)n[nH]c1-c1ccccc1)NO", "hMeprin α (Homo sapiens)", 7.77),
    ("O=C(Cc1c(-c2cccc(C(=O)O)c2)[nH]nc1[C@H]1CC[C@H](C(=O)O)CC1)NO", "hMeprin α (Homo sapiens)", 7.70),
    ("O=C(NO)C1c2ccccc2-c2[nH]nc(-c3ccccc3)c21 (stereo not drawn)", "hMeprin α (Homo sapiens)", 7.40),
    ("O=C(Cc1c(Cc2ccccc2)n[nH]c1-c1ccccc1)NO", "hMeprin α (Homo sapiens)", 7.15),
    ("O=C(Cc1c(-c2cccc(C(=O)O)c2)n[nH]c1-c1cccc(C(=O)O)c1)NO", "hMeprin α (Homo sapiens)", 7.96),
    ("N#Cc1cccc(-c2n[nH]c(-c3ccccc3)c2CC(=O)NO)c1", "hMeprin α (Homo sapiens)", 8.30),
    ("O=C(Cc1c(-c2cccc(-c3nnn[nH]3)c2)n[nH]c1-c1ccccc1)NO", "hMeprin α (Homo sapiens)", 9.15),
    ("O=C(Cc1c(-c2ccc(Cl)c(O)c2F)n[nH]c1-c1ccccc1)NO", "hMeprin α (Homo sapiens)", 8.52),
    ("O=C(Cc1c(-c2cccc(C(=O)O)c2)n[nH]c1-c1ccccc1)NO", "hMeprin α (Homo sapiens)", 8.10),
    ("COc1ccc(-c2n[nH]c(-c3ccccc3)c2CC(=O)NO)cc1OC", "hMeprin α (Homo sapiens)", 9.10),
    ("O=C(Cn1c(-c2ccc(Cl)c(O)c2F)nc2c(C(=O)O)cccc21)NO", "hMeprin α (Homo sapiens)", 6.04),
    ("O=C(Cn1c(-c2ccc(C(=O)O)cc2)nc2ccccc21)NO", "hMeprin α (Homo sapiens)", 7.12),
    ("N#Cc1ccc(-c2n[nH]c(-c3ccccc3)c2CC(=O)NO)cc1", "hMeprin α (Homo sapiens)", 7.85),
    ("O=C(Cc1c(-c2c[nH]nc2C(F)(F)F)n[nH]c1-c1ccccc1)NO", "hMeprin α (Homo sapiens)", 8.70),
]

###

- system: hMeprin β (Homo sapiens)
- Sequence (Q16820 62-701): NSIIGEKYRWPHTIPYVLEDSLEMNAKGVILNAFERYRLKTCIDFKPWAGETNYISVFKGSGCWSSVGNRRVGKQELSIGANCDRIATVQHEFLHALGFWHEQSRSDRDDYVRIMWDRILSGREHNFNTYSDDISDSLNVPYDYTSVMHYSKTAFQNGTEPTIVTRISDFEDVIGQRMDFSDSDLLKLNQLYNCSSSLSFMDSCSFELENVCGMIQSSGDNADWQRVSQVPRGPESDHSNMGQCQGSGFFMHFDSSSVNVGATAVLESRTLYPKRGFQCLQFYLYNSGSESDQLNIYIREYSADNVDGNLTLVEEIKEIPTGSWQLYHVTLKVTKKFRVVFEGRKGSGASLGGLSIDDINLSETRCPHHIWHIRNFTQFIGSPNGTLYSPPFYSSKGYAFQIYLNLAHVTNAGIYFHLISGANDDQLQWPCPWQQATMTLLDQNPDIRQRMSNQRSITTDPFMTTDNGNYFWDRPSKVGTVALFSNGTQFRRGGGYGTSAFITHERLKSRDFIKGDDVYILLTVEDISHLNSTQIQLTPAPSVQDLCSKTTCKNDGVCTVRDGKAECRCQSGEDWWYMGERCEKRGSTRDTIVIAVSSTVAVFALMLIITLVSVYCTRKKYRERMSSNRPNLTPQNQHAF
- test_details: Enzymatic assay, quenched peptide substrate cleavage, method B
- Format: biochemical
- test_context: geometric mean (geometric SD factor in parentheses), read-out: Meprin beta IC50
Parameter IC50: see the listing below.

# compound, IC50 [nM]
records = [
    ("O=C(Cc1c(-c2ccc(Cl)c(O)c2F)nc2ccccn12)NO [Example 28]", 81),
    ("O=C(Cc1c(-c2ccc3c(c2)OCO3)n[nH]c1-c1ccc(C(=O)O)cc1)NO [Example 62]", 94),
    ("O=C(Cc1c(-c2c[nH]nc2C(F)(F)F)n[nH]c1-c1ccccc1)NO [Example 70]", 89),
    ("COc1cccc(-c2n[nH]c(-c3ccccc3)c2CC(=O)NO)c1 [Example 47]", 123),
    ("O=C(Cc1c(-c2ccc3c(c2)OCO3)n[nH]c1-c1ccccc1)NO [Example 50]", 118),
    ("O=C(Cn1c(-c2cccc(C(=O)O)c2)nc2ccccc21)NO [Example 18]", 164),
    ("O=C(Cc1c(-c2ccccc2)[nH]nc1[C@H]1CC[C@@H](C(=O)O)CC1)NO [Example 75]", 35),
    ("O=C(Cc1c(-c2cccc(C(=O)O)c2)n[nH]c1-c1cccc(C(=O)O)c1)NO [Example 58]", 17),
    ("O=C(Cc1c(-c2ccccc2)nn(Cc2cccc(C(=O)O)c2)c1-c1ccccc1)NO [Example 41]", 10),
    ("O=C(Cc1c(C2CCCC2)n[nH]c1-c1ccccc1)NO [Example 45]", 327),
    ("O=C(Cc1c(-c2ccc3c(c2)OCO3)n[nH]c1-c1ccc2c(c1)OCO2)NO [Example 57]", 119),
    ("O=C(NO)C1Cc2ccccc2-c2[nH]nc(-c3ccccc3)c21 (stereo not drawn) [Example 68]", 2600),
    ("O=C(Cc1c(-c2cc(O)no2)n[nH]c1-c1ccccc1)NO [Example 69]", 14),
    ("O=C(Cc1c(-c2ccccc2)nn(Cc2ccc(C(=O)O)cc2)c1-c1ccccc1)NO [Example 40]", 9),
    ("O=C(Cc1c(-c2cc(F)c(O)c(Cl)c2)n[nH]c1-c1ccccc1)NO [Example 54]", 0.44),
    ("COc1ccc(-c2nc3ccccc3n2CC(=O)NO)cc1 [Example 15]", 257),
    ("O=C(Cc1c(-c2cccc(C(=O)O)c2)n[nH]c1-c1ccccc1)NO [Example 51]", 52),
    ("O=C(Cn1c(-c2ccc(Cl)c(O)c2F)nc2c(C(=O)O)cccc21)NO [Example 20]", 1190),
]

###

Below, each entry is listed alongside its reported remaining activity at 10 µM.
- system: hADAM 10 (Homo sapiens, UniProt O14672)
- Construct: purchased R&D systems
- Sequence (O14672 214-748): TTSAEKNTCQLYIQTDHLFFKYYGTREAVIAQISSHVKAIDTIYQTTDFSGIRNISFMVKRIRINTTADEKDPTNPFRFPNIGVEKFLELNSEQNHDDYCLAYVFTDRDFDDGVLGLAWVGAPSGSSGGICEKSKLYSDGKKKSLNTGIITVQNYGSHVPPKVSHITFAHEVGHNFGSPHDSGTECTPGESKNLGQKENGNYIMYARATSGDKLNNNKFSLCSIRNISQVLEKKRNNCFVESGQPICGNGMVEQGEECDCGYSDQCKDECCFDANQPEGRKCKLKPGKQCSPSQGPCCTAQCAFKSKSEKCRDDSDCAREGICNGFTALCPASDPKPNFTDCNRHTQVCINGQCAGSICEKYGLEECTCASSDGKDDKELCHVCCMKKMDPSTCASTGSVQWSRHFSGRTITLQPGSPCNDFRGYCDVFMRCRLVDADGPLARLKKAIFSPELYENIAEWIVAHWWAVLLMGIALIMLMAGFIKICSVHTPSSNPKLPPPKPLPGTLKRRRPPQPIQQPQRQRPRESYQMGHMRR
- test_details: Residual enzyme activity of other metalloproteases
- Assay type: biochemical
- test_context: 10 μM inhibitor; read-out: Residual enzyme activity ADAM10

# compound, system, remaining activity at 10 µM [%]
measured = [
    ("O=C(Cc1c(-c2ccccc2)nn(Cc2cccc(C(=O)O)c2)c1-c1ccccc1)NO [Example 41]", "hADAM 10 (Homo sapiens, UniProt O14672)", 92),
    ("O=C(Cc1c(-c2ccccc2)n[nH]c1-c1ccccc1)NO [Example 1]", "hADAM 10 (Homo sapiens, UniProt O14672)", 73),
    ("COc1ccc(-c2n[nH]c(-c3ccccc3)c2CC(=O)NO)cc1OC [Example 49]", "hADAM 10 (Homo sapiens, UniProt O14672)", 87),
    ("O=C(CCc1c(-c2ccccc2)noc1-c1ccccc1)NO [Example 4]", "hADAM 10 (Homo sapiens, UniProt O14672)", 75),
    ("O=C(Cc1c(-c2ccc3c(c2)OCO3)n[nH]c1-c1ccccc1)NO [Example 50]", "hADAM 10 (Homo sapiens, UniProt O14672)", 59),
    ("O=C(Cc1c(-c2cccc(C(=O)O)c2)n[nH]c1-c1ccc(Cl)c(O)c1F)NO [Example 63]", "hADAM 10 (Homo sapiens, UniProt O14672)", 90),
    ("O=C(Cc1c(-c2ccc3c(c2)OCO3)n[nH]c1-c1ccc2c(c1)OCO2)NO [Example 57]", "hADAM 10 (Homo sapiens, UniProt O14672)", 62),
    ("O=C(Cc1c(-c2ccccc2)nn(Cc2ccc(Cl)c(O)c2F)c1-c1ccccc1)NO [Example 42]", "hADAM 10 (Homo sapiens, UniProt O14672)", 85),
    ("O=C(Cn1c(-c2ccccc2)nnc1-c1ccccc1)NO [Example 7]", "hADAM 10 (Homo sapiens, UniProt O14672)", 89),
    ("O=C(Cc1c(-c2ccccc2)noc1-c1ccccc1)NO [Example 2]", "hADAM 10 (Homo sapiens, UniProt O14672)", 80),
    ("O=C(Cc1c(-c2ccccc2)nn(Cc2ccc3c(c2)OCO3)c1-c1ccccc1)NO [Example 43]", "hADAM 10 (Homo sapiens, UniProt O14672)", 69),
    ("O=C(Cc1c(-c2ccccc2)nn(Cc2ccc(C(=O)O)cc2)c1-c1ccccc1)NO [Example 40]", "hADAM 10 (Homo sapiens, UniProt O14672)", 91),
    ("O=C(Cn1c(-c2ccccc2)cc2ccccc21)NO [Example 25]", "hADAM 10 (Homo sapiens, UniProt O14672)", 89),
    ("O=C(Cc1c(-c2cc(F)c(O)c(Cl)c2)n[nH]c1-c1ccccc1)NO [Example 54]", "hADAM 10 (Homo sapiens, UniProt O14672)", 104),
    ("O=C(CCc1c(-c2ccccc2)n[nH]c1-c1ccccc1)NO [Example 3]", "hADAM 10 (Homo sapiens, UniProt O14672)", 66),
    ("O=C(Cn1c(-c2ccccc2)ccc1-c1ccccc1)NO [Example 9]", "hADAM 10 (Homo sapiens, UniProt O14672)", 83),
    ("COc1cccc(-c2n[nH]c(-c3ccccc3)c2CC(=O)NO)c1 [Example 47]", "hADAM 10 (Homo sapiens, UniProt O14672)", 68),
    ("O=C(Cn1c(-c2ccccc2)nc2ccccc21)NO [Example 13]", "hADAM 10 (Homo sapiens, UniProt O14672)", 87),
]

Just for reference, patent US20250388544A1 is where these values come from.
